The compounds below have reported GI50 for HCT-15.
Observed property: GI50

>>> value_observed("Cc1ccccc1/N=N/c1ccc(/N=N/c2c(O)ccc3ccccc23)c(C)c1")
"> 100 µM"
>>> value_observed("CC(=O)Nc1sc(Br)cc1S(=O)(=O)c1ccc(Cl)cc1")
"> 10 µM"
>>> value_observed("Clc1ccc(C2SCc3nc4ccccc4n32)c(Cl)c1 (stereo unspecified)")
"15.6 µM"
>>> value_observed("CC1(C)CC(=O)C(CCC(=O)/C=C/c2ccccc2)C(=O)C1")
"> 100 µM"
>>> value_observed("O=C1N[C@@H]2O[C@H](CNC(=O)c3cc(Br)c[nH]3)C[C@]2(O)N1.O=C1N[C@H]2O[C@H](CNC(=O)c3cc(Br)c[nH]3)C[C@@]2(O)N1")
"> 100 µM"
>>> value_observed("Cc1ccc(N(C)S(=O)(=O)c2ccccc2[N+](=O)[O-])cc1")
"46.7 µM"

====

system: CCRF-CEM; assay: NCI tumour cell line growth inhibition, 48 h
The source made the active and inactive calls. Rule as the data show it: active = GI50 up to about 1.1 µM and inactive = higher.
Observed property: GI50

>>> value_observed("O=C(NC1CCN(Cc2ccccc2)CC1)c1ccc(I)cc1")
"76.7 µM (inactive)"
>>> value_observed("COc1cc2c(cc1OC)C1Cc3cc(OC)c(OC)cc3C(C2)O1")
"60.1 µM (inactive)"
>>> value_observed("CCOC(=O)C1(C(=O)OCC)C[C@]23OCCC(=O)[C@H]2[C@H]2C(=O)OC(C)(C)O[C@]23C1")
"> 100 µM (inactive)"
>>> value_observed("NCCN1C(=O)c2cc(Cl)c(Cl)cc2C1(O)c1ccc(Cl)cc1 (stereo unspecified)")
"3.61 µM (inactive)"
>>> value_observed("CC(C)(CCCCC(C)(C)C1NC(=O)N1)C1NC(=O)N1")
"> 10 µM (inactive)"
>>> value_observed("COc1ccc(C(O)/C(=N\\NC(N)=S)c2nc3ccc([N+](=O)[O-])cc3nc2O)cc1OC (stereo unspecified)")
"> 100 µM (inactive)"
>>> value_observed("N#Cc1nc(C#N)c(NC(=O)c2ccccc2C(=O)O)[nH]1")
"> 100 µM (inactive)"
>>> value_observed("CCCCCCCCCCCc1cc(=O)c2c(O)cccc2o1")
"20.3 µM (inactive)"
>>> value_observed("O=c1c2cc(I)ccc2nc(SCc2nncs2)n1Cc1ccccc1")
"5.71 µM (inactive)"
>>> value_observed("COC(=O)C(CSSC[C@H](N/C(C)=C/C(C)=O)C(=O)OC)N/C(C)=C/C(C)=O (stereo partly specified)")
"26.4 µM (inactive)"
>>> value_observed("CC(C)S(=O)(=O)n1c(N)nc2ccc(/C(=N/O)c3ccccc3)cc21 [ENVIROXIME]")
"10.6 µM (inactive)"

====

system: HT-29; test: NCI tumour cell line growth inhibition, 48 h
The source made the active and inactive calls. No stated cut-off is given here; in the data, active = GI50 up to about 1.1 µM and inactive = higher.
Recorded GI50, one value per entry.
Observed property: GI50

>>> value_observed("CN1C2CCC1CN(CCOC(c1ccc(F)cc1)c1ccc(F)cc1)C2")
"19.5 µM (inactive)"
>>> value_observed("Cc1cc(C)cc(Nc2nnc3n2S(=O)(=O)c2cc(C)c(Cl)cc2S3)c1")
"7.26 µM (inactive)"
>>> value_observed("CC1(C)CC(=O)C(CCC(=O)/C=C/c2ccccc2)C(=O)C1")
"> 100 µM (inactive)"
>>> value_observed("CC(C)(C)[Si](C)(C)OCC1C=CC(n2cnc3c(N)ncnc32)O1 (stereo not given)")
"53.5 µM (inactive)"
>>> value_observed("NC(CCCNCc1ccccc1)C(=O)O (stereo not given)")
"> 100 µM (inactive)"
>>> value_observed("CCOC(=O)COc1ccc(/C=C/C(=O)c2ccc(OC)cc2)cc1")
"21.5 µM (inactive)"
>>> value_observed("CC(=O)OC1C2CCC3C(C)(O)C4CC(O)C(C)(C)C4(O)C(O)CC13CC2(C)O (stereo not given)")
"> 100 µM (inactive)"
>>> value_observed("C[C@]12CC[C@H]3[C@@H](CC=C4C[C@@H](O)CC[C@@]43C)[C@@H]1C/C(=C\\c1ccc([N+](=O)[O-])cc1)[C@@H]2O")
"5.83 µM (inactive)"
>>> value_observed("CC(C)(C)N(Cc1ccc2c(c1)OCO2)C(=O)/C=C\\Sc1ccccc1")
"28.8 µM (inactive)"
>>> value_observed("O=C1CCC(c2nc3ccccc3o2)C(=O)N1 (stereo not given)")
"> 100 µM (inactive)"

====

Recorded GI50, one value per entry.
test system: EKVX; experiment: NCI tumour cell line growth inhibition, 48 h
Active and inactive are the calls of the source. Rule as the data show it: active = GI50 up to about 1.1 µM and inactive = higher.
Observed property: GI50

>>> value_observed("COC(=O)C12CCC(C(=O)OC)(Cc3c(c4ccccc4n3S(=O)(=O)c3ccccc3)C1)C2=O (configuration not stated)")
"> 100 µM (inactive)"
>>> value_observed("c1ccc(COCC23CCN(Cc4ccccc4)C(CC(OCc4ccccc4)C2)S3)cc1 (configuration not stated)")
"49 µM (inactive)"
>>> value_observed("COCN/C(N)=N/C#N")
"> 100 µM (inactive)"
>>> value_observed("Cc1nc(-c2ccccc2)cn2c1nc1ccccc12")
"25.2 µM (inactive)"
>>> value_observed("C/C(=C\\c1ccccc1)C(=O)CCN1CCOCC1")
"27.8 µM (inactive)"
>>> value_observed("CC1=Nn2c(nnc2-c2ccc(N)cc2)NC(C)(C)C1")
"> 100 µM (inactive)"
>>> value_observed("O=C(O)C12C3CCCC1C2CC3 (configuration not stated)")
"> 100 µM (inactive)"
>>> value_observed("COc1ccc2nc3cc(Cl)ccc3c(NCCNC(=O)Cn3c(=O)n(C)c(=O)c4c3nc3c(c(=O)n(C)c(=O)n3C)[n+]4[O-])c2c1")
"34.7 µM (inactive)"
>>> value_observed("O=C(Nc1nnc(-c2ccc(Cl)cc2)o1)C(SC(=S)N1CCOCC1)c1ccccc1 (configuration not stated)")
"14.6 µM (inactive)"
>>> value_observed("O=C(O)C1C2C=CC(O2)C1C(=O)Nc1ncccn1 (configuration not stated)")
"> 100 µM (inactive)"
>>> value_observed("CC(=O)O/C=C1/C[C@H]2[C@@H]3CCC4CC(C(C)=O)CC[C@]4(C)[C@H]3CC[C@]2(C)C1=O (some centres not stated)")
"> 100 µM (inactive)"
>>> value_observed("O=C(/C=C/c1ccccc1)NC1C=Nc2ccc(Cl)cc2NC1=O (configuration not stated)")
"31.3 µM (inactive)"

====

system: NCI-H522; assay: NCI tumour cell line growth inhibition, 48 h
Structures can show the parent of a compound that is named as a salt. Calls of active or inactive are those of the source. Rule as the data show it: active = GI50 up to about 1.1 µM and inactive = higher.
Outcomes: active, inactive

>>> group_label("CCN(CC)CCNC(=O)c1nn(C)c(=S)[nH]c1=S")
"inactive"
>>> group_label("O=S1(=O)c2ccccc2Oc2ccc(C(/C=N/O)=N/O)cc21")
"inactive"
>>> group_label("Cc1sc(/N=C/c2c[nH]c3ccccc23)c(C#N)c1C")
"inactive"
>>> group_label("Nc1c(S(=O)(=O)O)cc(S(=O)(=O)O)c2ccc(/N=N/c3ccccc3)c(O)c12")
"inactive"
>>> group_label("CC(C)(C)OC(=O)N/N=C(/N)c1ccccc1")
"inactive"
>>> group_label("CCN(CC)C(=O)CCCCCCCCC1CO1 (configuration not stated)")
"inactive"
>>> group_label("O=C(O)CC(NC(=O)CP(=O)(O)O)C(=O)O (configuration not stated)")
"inactive"
>>> group_label("CC1=Nn2c(nnc2-c2ccc(N)cc2)NC(C)(C)C1")
"inactive"
>>> group_label("Cc1cc(C)nc(NS(=O)(=O)c2ccc(Nc3c4ccccc4nc4c(C(=O)Nc5ccc(S(=O)(=O)Nc6cc(C)on6)cc5)ccc(Cl)c34)cc2)n1")
"inactive"
>>> group_label("CNc1ccc(C)cc1S(=O)(=O)c1ccccc1[N+](=O)[O-]")
"inactive"
>>> group_label("CCOC(=O)CCNC(=O)c1cc(C)cc2c1Oc1c(cc(C)cc1C(=O)NCCC(=O)OCC)S2")
"inactive"
>>> group_label("COc1cc2c(cc1OC)[C@@H]1[C@H](C#N)C(=O)C(C)(C)N1CC2")
"inactive"
>>> group_label("N#Cc1c(-c2cccc(Cl)c2)cc(-c2ccc(Cl)cc2)nc1N")
"inactive"
>>> group_label("Cc1cccc2c(=O)c3cccc([C@H](C)C(=O)O)c3oc12")
"inactive"
>>> group_label("COc1ccc2c(n1)Sc1nc3ccccc3nc1N2")
"inactive"
>>> group_label("Cc1ccccc1C(CCCO)C(=O)O (configuration not stated)")
"inactive"
>>> group_label("CC(C)NC(=O)OCc1c(COC(=O)NC(C)C)c(-c2cc[n+](COC(=O)C(C)(C)C)cc2)n2c1CCC2")
"inactive"
>>> group_label("CNCCC=C1c2ccccc2CCc2ccccc21 [NORTRIPTYLINE HYDROCHLORIDE]")
"inactive"
>>> group_label("NCC(=O)NC1(c2cc3ccccc3s2)CCCCC1")
"inactive"
>>> group_label("On1c(-c2ccccc2)c(-c2c(-c3ccccc3)n(O)c3ccccc23)c2ccccc21")
"inactive"
>>> group_label("COc1ccc(/C=N/c2ccc(-c3nc4ccccc4s3)cc2)cc1OC")
"inactive"
>>> group_label("CCCCCCCCCCn1cccc1/C=C/c1ccc(/C=C/c2cccn2CCCCCCCCCC)cc1")
"inactive"
>>> group_label("COC1=CC(c2ccc(Br)[nH]2)=N/C1=C/NCC(C)C")
"inactive"
>>> group_label("Cc1ccc(S(=O)(=O)OC2=C/C(=N\\c3onc(C)c3C)c3ccccc3C2=O)cc1")
"inactive"
>>> group_label("CCOC(=O)c1c(SCCN2CCOCC2)n(-c2ccccc2)c(=S)n(-c2ccccc2)c1=O")
"inactive"
>>> group_label("O=C1c2ccccc2C2(c3ccc(F)cc3)NCCN12 (configuration not stated)")
"inactive"
>>> group_label("CN1C2CCC1CN(CCOC(c1ccc(F)cc1)c1ccc(F)cc1)C2")
"inactive"
>>> group_label("O=C(O)C12C3CCCC1C2CC3 (configuration not stated)")
"inactive"
>>> group_label("CC(C)OP(=O)(OC(C)C)c1ncn(-c2ccc([N+](=O)[O-])cc2)n1")
"inactive"
>>> group_label("CCCCc1c2c(nc3c1CCC/C3=C\\c1ccccc1)C(=O)C(CN(C)C)CC2 (configuration not stated)")
"inactive"
>>> group_label("Cc1ccc(NC(=O)NC(=O)c2ccc([N+](=O)[O-])cc2[N+](=O)[O-])cc1Oc1ncc(Cl)cn1")
"active"
>>> group_label("CN(C)CC/C(=N\\Nc1ccc([N+](=O)[O-])cc1)c1ccccc1")
"inactive"
>>> group_label("Cc1cc(C)c(NC(=O)/C=C/c2ccccc2)c(C)c1")
"inactive"
>>> group_label("N#C[BH2-][n+]1cn(C2CC(O)C(COP(=O)(O)OC3CC(n4cnc5c(=O)[nH]c(N)nc54)OC3CO)O2)c2nc(N)[nH]c(=O)c21 (configuration not stated)")
"inactive"
>>> group_label("CCOc1ccnc2c(OC)c(C)c3nc4ccccc4nc3c12")
"inactive"
>>> group_label("N/C(=N\\NC(=O)c1nc2ccccc2s1)c1ccccn1")
"inactive"
>>> group_label("CO[C@H]1C=C[C@]23c4cc5c(cc4CN(CC2O)[C@@H]3C1)OCO5 (some centres not stated)")
"inactive"
>>> group_label("Cn1c([N+](=O)[O-])cnc1CN1CCN(CCO)CC1")
"inactive"
>>> group_label("c1ccc2cc(CNCCOCCOCCNCc3ccc4ccccc4c3)ccc2c1")
"inactive"
>>> group_label("O=C1CCCCC12CCC/C2=N\\O (configuration not stated)")
"inactive"
>>> group_label("Cc1cc(C)cc(Nc2nnc3n2S(=O)(=O)c2cc(C)c(Cl)cc2S3)c1")
"inactive"
>>> group_label("COC(=O)C12Oc3ccc(-c4ccc5c(c4O)C(O)=C4C(=O)CC(C)C(O)C4(C(=O)OC)O5)c(O)c3C(O)=C1C(=O)CC(C)C2O (configuration not stated)")
"active"
